Test: in vitro
Conditions: rat, gh3-tre-luc cells, AC50 (uM) modified / 1000
Give measured CC50 at 24 h for each item. Keep answers brief.

Oc1ccc(C2CNCCc3c2cc(O)c(O)c3Cl)cc1 (stereo not drawn) [Fenoldopam]
> 50 µM

// for each compound in input: emit CC50 at 24 h
1. CCC(C)C1CCCCC1=O (stereo not drawn) [2-sec-Butylcyclohexanone]
2. CCCCNC(=O)NS(=O)(=O)c1ccc(N)cc1 [Carbutamide]
3. CCCCCCCCCCO [1-Decanol]
4. O=C1OC2(c3ccccc31)c1cc(Br)c(O)c(Br)c1Oc1c2cc(Br)c(O)c1Br [2',4',5',7'-Tetrabromofluorescein]
5. CCCCCCOCCO [2-Hexyloxyethanol]

[A]
> 90 µM
> 90 µM
> 90 µM
5.55 µM
> 90 µM

====

Experiment: in vitro
Settings: rat, gh3-tre-luc cells, AC50 (uM) modified / 1000, Tox21_110001=Tox21_200619; viability, 1 nM T3 present, 24 h
RECORDED ENDPOINT: CC50 at 24 h

[Q] Param item = CCCBr ; retrieve measured CC50 at 24 h.
[A] > 90 µM

====

Experiment: in vitro
Details: rat, gh3-tre-luc cells, AC50 (uM) modified / 1000, Tox21_110001=Tox21_302749; viability, 1 nM T3 present, 24 h
RECORDED ENDPOINT: CC50 at 24 h

[Q] Param item = CCN(N=O)C(N)=O ; retrieve measured CC50 at 24 h.
[A] > 60 µM

====

Test system: GH3-TRE-Luc cell line
Conditions: read-out: AC50 (uM) modified / 1000; Tox21_110001=Tox21_301841; viability, 1 nM T3 present, 24 h
RECORDED ENDPOINT: CC50 (µM)
Give bare numbers, in µM.

[Q] Param item = CC#C[C@]1(O)CC[C@H]2[C@@H]3CCC4=CC(=O)CCC4=C3[C@@H](c3ccc(N(C)C)cc3)C[C@@]21C ; retrieve measured CC50.
[A] 36.7

====

Give measured GLOBAL CYTOTOXICITY cytotox.median for each item. Keep answers brief.
Test system: Tox21 cell viability assays (different cell types)
Experiment: Global cytotoxicity: eighteen Tox21 cell viability assays
Assay type: cell-based
Conditions: median over Tox21 viability assays

Below: 3 compounds and their reported GLOBAL CYTOTOXICITY cytotox.median.
N[C@@H](Cc1cc(I)c(Oc2cc(I)c(O)c(I)c2)c(I)c1)C(=O)O [Levothyroxine, reference compound]
>92
C[C@]12CC[C@H]3C(=CCc4cc(O)ccc43)[C@@H]1CCC2=O [Equilin, reference compound]
>92
Cl.NC(CO)(CO)CO [Tromethamine hydrochloride]
>92

// for each compound in input: emit GLOBAL CYTOTOXICITY cytotox.median
1. O=C(O)Cc1cc(I)c(Oc2ccc(O)c(I)c2)c(I)c1 [Tiratricol, reference compound]
2. CC(C)(C)CC(C)(C)c1ccc(O)c(Cc2ccc(Cl)cc2Cl)c1 [Clofoctol, reference compound]
3. O=C(O)Cc1cc(I)c(Oc2cc(I)c(O)c(I)c2)c(I)c1
4. CC1=C(/C=C/C(C)=C\C=C\C(C)=C\C(=O)O)C(C)(C)CCC1 [9-cis Retinoic acid, reference compound]
5. O=C(Cl)OCCOCCOC(=O)Cl [Diethlylene glycol bis chloroformate]

[A]
27.0
16.7
35.7
>92
>92

// for each compound in input: emit GLOBAL CYTOTOXICITY cytotox.median
1. Cc1occc(=O)c1O
2. C[C@H](CCC(=O)NCC(=O)O)[C@H]1CC[C@H]2[C@@H]3[C@H](O)C[C@@H]4C[C@H](O)CC[C@]4(C)[C@H]3C[C@H](O)[C@]12C
3. CNC(=O)ON=C(CSC)C(C)(C)C
4. CC1(C)COP(Oc2ccccc2)OC1
5. CC(C)(c1ccccc1)c1ccc(O)c(C(C)(C)c2ccccc2)c1

[A]
1. >92
2. >92
3. >92
4. >92
5. 24.3

[Q] What value of GLOBAL CYTOTOXICITY cytotox.median on Tox21 cell viability assays (different cell types) does CC1=C(/C=C/C(C)=C/C=C/C(C)=C/C(=O)O)C(C)(C)CCC1 [all trans-Retinoic acid, reference compound] have?
[A] >92

====

Experiment: in vitro
Details: rat, gh3-tre-luc cells, AC50 (uM) modified / 1000
RECORDED ENDPOINT: CC50 at 24 h

Below: 6 compounds and their reported CC50 at 24 h.
CCCCCCCCOC(=O)c1ccccc1C(=O)OCCCCCCCC [Di-n-octyl phthalate]
> 90 µM
Clc1cccc(Cl)c1Cl
> 90 µM
CC1(C)S[C@@H]2[C@H](NC(=O)C(C(=O)Oc3ccc4c(c3)CCC4)c3ccccc3)C(=O)N2[C@H]1C(=O)O (some centres unmarked)
> 50 µM
CC(C)(C(=O)c1cccnc1)c1cccnc1
> 20 µM
O=S(=O)(O)c1cc(O)c2ccc(Nc3ccccc3)cc2c1
> 90 µM
O=C1O[C@H](CO)[C@@H](O)[C@H](O)[C@H]1O
> 90 µM

// for each compound in input: emit CC50 at 24 h
1. CC(C)(C)CC(C)(C)c1cc(Cc2cc(C(C)(C)CC(C)(C)C)cc(-n3nc4ccccc4n3)c2O)c(O)c(-n2nc3ccccc3n2)c1
2. C=CCC1=C(C)[C@@H](OC(=O)[C@@H]2[C@@H](C=C(C)C)C2(C)C)CC1=O

[A]
1. > 50 µM
2. 32.6 µM

====

Assay: in vitro
Conditions: rat, gh3-tre-luc cells, AC50 (uM) modified / 1000, Tox21_110001=Tox21_201338; viability, 1 nM T3 present, 24 h
RECORDED ENDPOINT: CC50 at 24 h

[Q] Param item = CNC(=O)ON=CC(C)(C)S(C)(=O)=O ; retrieve measured CC50 at 24 h.
[A] > 90 µM

====

Test system: thyroid hormone receptor (TR)
Assay: Classification of TR actives across characterization assays (TR-Ag / RXR-Ag; TR model binary)
Details: TR agonist characterization
Structures can show the parent of a compound that is named as a salt.
RECORDED ENDPOINT: Categorization Code

Below: 4 molecules and their reported Categorization Code.
O=C(O)Cc1cc(I)c(Oc2cc(I)c(O)c(I)c2)c(I)c1
TR-Ag
O=c1[nH]cnc2c1ncn2[C@H]1CC[C@@H](CO)O1
FP
O=C(O)Cc1cc(I)c(Oc2ccc(O)c(I)c2)c(I)c1 [Tiratricol, reference compound]
TR-Ag
NCC(=O)CCC(=O)O [Aminolevulinic acid hydrochloride]
FP

// for each molecule in input: emit Categorization Code
1. N[C@@H](Cc1cc(I)c(Oc2cc(I)c(O)c(I)c2)c(I)c1)C(=O)O [Levothyroxine, reference compound]
2. O=C(O)CCNC(=O)c1ccccc1 [Betamipron, reference compound]
3. CNC(=O)ON=C(CSC)C(C)(C)C

[A]
TR-Ag
TR-Ag
FP

====

Assay: in vitro
Conditions: rat, gh3-tre-luc cells, AC50 (uM) modified / 1000, Tox21_110001=Tox21_111132; viability, 1 nM T3 present, 24 h
RECORDED ENDPOINT: CC50 at 24 h (µM)
Answers are plain numbers, in µM.

[Q] Param item = C[C@H]1CC[C@@H]2[C@@H](C)[C@H]3[C@H](C[C@H]4[C@@H]5CC=C6C[C@@H](O[C@@H]7O[C@H](CO)[C@H](O)[C@H](O[C@@H]8O[C@H](CO)[C@@H](O)[C@H](O)[C@H]8O)[C@H]7O[C@@H]7O[C@@H](C)[C@H](O)[C@@H](O)[C@H]7O)CC[C@]6(C)[C@H]5CC[C@]34C)N2C1 ; retrieve measured CC50 at 24 h.
[A] 17.5

====

Test: in vitro
Conditions: rat, gh3-tre-luc cells, AC50 (uM) modified / 1000
Structures can show the parent of a compound that is named as a salt.
Give measured CC50 at 24 h for each item. Keep answers brief.

Below: 5 compounds and their reported CC50 at 24 h.
O=C1c2ccccc2-c2ccccc21 [9-Fluorenone]
> 90 µM
CC(=O)c1ccc(OCC(=O)N2CCCCC2)cc1
> 50 µM
CC(=O)c1ccc(S(=O)(=O)NC(=O)NC2CCCCC2)cc1 [Acetohexamide]
> 90 µM
NCCO/C=C/[C@H](N)C(=O)O [Aviglycine hydrochloride]
> 50 µM
COc1ccccc1NC(=O)c1cc2ccccc2cc1O [3-Hydroxy-2-naphthoic o-anisidide]
> 90 µM

Kindly review the next compound as well.
[Q] Param item = CCOC(=O)CC [Ethyl propionate] ; retrieve measured CC50 at 24 h.
[A] > 90 µM

====

System: GH3-TRE-Luc cell line
Conditions: read-out: AC50 (uM) modified / 1000; Tox21_110001=Tox21_201722; viability, 1 nM T3 present, 24 h
RECORDED ENDPOINT: CC50 (µM)
Numbers only, in µM.

[Q] Param item = N=C(N)c1ccc(OCCCCCOc2ccc(C(=N)N)cc2)cc1 [Pentamidine isethionate] ; retrieve measured CC50.
[A] 63.5

Where do the numbers come from? From paper PMC6792352.
